- system_name: Mitogen-activated protein kinase 14 (Homo sapiens)
- test: Inhibition of p38alpha by immunosorbent based kinase assay
pIC50: −log10 of the molar value.
# if value of pIC50 reaches 7, tag class 1; if it stays below, tag class 0

Solved entries:
COc1ccc2c(c1)C(=O)c1ccc(Nc3ccc(F)cc3C)cc1CC2: class 1
CC1(C)OC[C@H](COc2ccc3c(c2)CCc2cc(Nc4ccc(F)cc4F)ccc2C3=O)O1: class 1
O=C1c2ccc(Nc3ccc(F)cc3F)cc2CCc2ccc(OCCCN3CCOCC3)cc21: class 1
CC1(C)OC[C@H](COc2ccc3c(c2)C(=O)c2ccc(Nc4ccccc4N)cc2CC3)O1: class 1
COc1ccc2c(c1)C(=O)c1ccc(Nc3ccc(C(F)(F)F)cc3N)cc1CC2: class 0

Exercise: Textbook exercise: given the entry `CC1(C)OC[C@@H](CCOc2ccc3c(c2)C(=O)c2ccc(Nc4ccc(F)cc4F)cc2CC3)O1` , state whether its pIC50 is greater than or equal to 7.
Key: class 1

Exercise: Is pIC50 at least 7? Consider `COc1ccc2c(c1)C(=O)c1ccc(Nc3cc(F)cc(F)c3F)cc1CC2`
Key: class 1

Exercise: Check the entry `O=C1c2ccc(Nc3ccc(F)cc3F)cc2CCc2ccc(OC3CCOCC3)cc21` : does pIC50 equal or exceed 7?
Key: class 1

Exercise: Say whether `COc1ccc2c(c1)C(=O)c1ccc(Nc3ccccc3C(F)(F)F)cc1CC2` shows pIC50 of 7 or more.
Key: class 0

Exercise: Given `COc1ccc2c(c1)C(=O)c1ccc(Nc3ccccc3Cl)cc1CC2` , state whether its pIC50 is at least 7.
Key: class 0

Exercise: pIC50 >= 7 for `COc1ccc2c(c1)C(=O)c1ccc(Nc3ccc(F)cc3Cl)cc1CC2` ?
Key: class 1

Exercise: Test whether the compound `COc1ccc2c(c1)C(=O)c1ccc(Nc3ccc(F)cc3N)cc1CC2` records pIC50 of 7 or higher.
Key: class 1

Exercise: Form field: pIC50 at least 7? Entry: `COc1ccc2c(c1)C(=O)c1ccc(Nc3ccc(F)c(C)c3)cc1CC2`
Key: class 1

Exercise: // inclusive: pIC50 at least 7? input: `O=C1c2ccc(Nc3ccc(F)cc3Cl)cc2CCc2ccc(O)cc21`
Key: class 0

###

- system_name: Mitogen-activated protein kinase 14 (Homo sapiens)
- test: Inhibition of p38alpha by immunosorbent based kinase assay
The following molecules are listed with their measured IC50 values.
The reply should contain only the number, in nM.

The cases that follow already have their IC50 on record.
O=C1c2ccc(Nc3ccc(F)cc3F)cc2CCc2cc(OC[C@@H](O)CO)ccc21: 5
O=C1c2ccc(Nc3ccccc3)cc2CCc2ccc(O)cc21: 60
COc1cccc2c1CCc1cc(Nc3ccccc3N)ccc1C2=O: 80
Nc1ccccc1Nc1ccc2c(c1)CCc1ccc(OC[C@H](O)CO)cc1C2=O: 20
O=C1c2ccc(Nc3ccc(F)cc3F)cc2CCc2c(OCCN3CCOCC3)cccc21: 30

Exercise: Record lookup: for Mitogen-activated protein kinase 14 (Homo sapiens), what IC50 belongs to `Nc1ccccc1Nc1ccc2c(c1)CCc1ccc(OC[C@@H](O)CO)cc1C2=O` ?
Key: 8

Exercise: Item: `O=C1c2ccc(Nc3ccc(F)cc3F)cc2CCc2c(O)cccc21` Test system: Mitogen-activated protein kinase 14 (Homo sapiens) Read-out: IC50 Value: ?
Key: 20

Exercise: Which IC50 is reported with Mitogen-activated protein kinase 14 (Homo sapiens) for this entry: `O=c1c2ccc(Nc3ccc(F)cc3F)cc2ccc2ccc(O)cc12` ?
Key: 300

Exercise: // map `O=C1c2ccc(Nc3ccccc3Cl)cc2CCc2ccc(O)cc21` to recorded IC50 (system: Mitogen-activated protein kinase 14 (Homo sapiens))
Key: 140

Exercise: Please provide the recorded IC50 for `O=C1c2ccc(Oc3ccc(F)cc3F)cc2CCc2ccc(OC[C@@H](O)CO)cc21` , tested on Mitogen-activated protein kinase 14 (Homo sapiens).
Key: 40

###

- system_name: Mitogen-activated protein kinase 14 (Homo sapiens, UniProt Q16539)
- Sequence (Q16539 whole entry): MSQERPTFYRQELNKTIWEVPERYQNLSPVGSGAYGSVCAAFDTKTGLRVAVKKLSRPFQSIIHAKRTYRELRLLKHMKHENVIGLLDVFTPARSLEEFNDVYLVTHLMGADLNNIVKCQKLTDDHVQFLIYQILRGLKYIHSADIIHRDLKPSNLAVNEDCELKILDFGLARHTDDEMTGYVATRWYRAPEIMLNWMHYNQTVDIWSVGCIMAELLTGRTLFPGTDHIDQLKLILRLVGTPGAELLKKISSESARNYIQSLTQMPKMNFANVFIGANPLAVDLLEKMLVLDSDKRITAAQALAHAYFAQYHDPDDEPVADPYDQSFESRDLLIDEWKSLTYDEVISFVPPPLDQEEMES
- test: Inhibition of p38alpha by immunosorbent based kinase assay
# if measured IC50 < 40 nM: condition met  # else: condition not met

Please review the following examples before continuing.
COc1cccc2c1CCc1cc(Nc3ccc(F)cc3F)ccc1C2=O: condition not met
COc1ccc2c(c1)CCc1cc(Nc3ccccc3N)ccc1C2=O: condition not met
CC1(C)OC[C@@H](COc2ccc3c(c2)C(=O)c2ccc(Nc4ccccc4N)cc2CC3)O1: condition not met

Exercise: Please state whether IC50 is below 40 nM for `O=C1c2ccc(Nc3ccc(F)cc3F)cc2CCc2c(OC[C@H](O)CO)cccc21`
Key: condition met

Exercise: Is 40 nM strictly greater than the compound's reported IC50? compound: `CC1(C)OC[C@H](COc2ccc3c(c2)CCc2cc(Nc4ccccc4N)ccc2C3=O)O1`
Key: condition not met

Exercise: Dear colleague, could you confirm whether IC50 of `COc1ccc2c(c1)C(=O)c1ccc(Nc3ccccc3)cc1CC2` falls below 40 nM? Thanks.
Key: condition not met

Exercise: Please check: IC50 for `O=C1c2ccc(Nc3ccc(F)cc3F)cc2CCc2ccc(OCCCO)cc21` , strictly under 40 nM or not?
Key: condition met

###

Measured IC50, listed per entry for reference.
- system_name: Mitogen-activated protein kinase 14 (Homo sapiens)
- test: Inhibition of p38alpha by immunosorbent based kinase assay
API: value field is a number in nM; no unit string.

COc1ccc2c(c1)C(=O)c1ccc(Oc3ccc(F)cc3F)cc1CC2: 100
CC1(C)OC[C@H](COc2ccc3c(c2)C(=O)c2ccc(Nc4ccc(F)cc4F)cc2CC3)O1: 20
CC1(C)OC[C@H](COc2cccc3c2CCc2cc(Nc4ccc(F)cc4F)ccc2C3=O)O1: 440
O=C1c2ccc(Nc3ccc(F)cc3F)cc2CCc2cc(OC[C@H](O)CO)ccc21: 30
COc1ccc2c(c1)C(=O)c1ccc(Nc3ccccc3F)cc1CC2: 70

Exercise: Data request, read-out IC50, for `O=C1c2ccc(Nc3ccc(F)cc3F)cc2CCc2cc(OCCO)ccc21`
Key: 20

Exercise: IC50 lookup needed for `COc1ccc2c(c1)CCc1cc(Nc3ccc(F)cc3F)ccc1C2=O` , thanks.
Key: 20

Exercise: Quick check: IC50 of `O=C1c2ccc(Oc3ccc(F)cc3F)cc2CCc2ccc(OCCN3CCOCC3)cc21` ?
Key: 80

Exercise: Sample `O=C1c2ccc(Nc3ccc(F)cc3F)cc2CCc2ccc(OCC[C@@H](O)CO)cc21` — what was its IC50?
Key: 10

Exercise: If you can, please state the reported IC50 value of `O=C1c2ccc(Nc3ccc(F)cc3F)cc2CCc2cc(OCCCO)ccc21` .
Key: 30

###

- system_name: Serine/threonine-protein kinase N1 (Homo sapiens)
- test: Inhibition of PRK1 at 10 uM
Activity calls are given as the source filed them. The calls are words filed in the database; no cut-off is given here.
property_label: inhibition

Solved entries (count: 8):
O=C1c2ccc(Nc3ccc(F)cc3F)cc2CCc2c(OC[C@H](O)CO)cccc21: inactive
COc1ccc2c(c1)C(=O)c1ccc(Nc3ccccc3Cl)cc1CC2: inactive
COc1ccc2c(c1)C(=O)c1ccc(Nc3ccc(F)cc3C)cc1CC2: inactive
O=C1c2ccc(Nc3ccc(F)cc3F)cc2CCc2ccc(OCCO)cc21: inactive
Nc1ccccc1Nc1ccc2c(c1)CCc1c(OC[C@H](O)CO)cccc1C2=O: inactive
CC1(C)OC[C@H](COc2ccc3c(c2)CCc2cc(Nc4ccc(F)cc4F)ccc2C3=O)O1: inactive
CC1(C)OC[C@H](COc2ccc3c(c2)C(=O)c2ccc(Nc4ccc(F)cc4F)cc2CC3)O1: inactive
O=C1c2ccc(Nc3ccc(F)cc3F)cc2CCc2cc(OC[C@@H](O)CO)ccc21: inactive

Exercise: # query: inhibition of entry `CC1(C)OC[C@H](COc2cccc3c2CCc2cc(Nc4ccc(F)cc4F)ccc2C3=O)O1`
Key: inactive

Exercise: Would you mind telling me what inhibition value was observed for `COc1ccc2c(c1)C(=O)c1ccc(Nc3ccc(F)cc3Cl)cc1CC2` ?
Key: inactive

Exercise: Give the measured inhibition of `CC1(C)OC[C@@H](COc2ccc3c(c2)CCc2cc(Nc4ccc(F)cc4F)ccc2C3=O)O1` .
Key: inactive

###

Here, each record is paired with measured pIC50 data.
- system_name: Mitogen-activated protein kinase 14 (Homo sapiens, UniProt Q16539)
- test: Inhibition of p38alpha by immunosorbent based kinase assay
Quick note: pIC50 values are minus log10 of concentrations in mol/L.

Nc1ccccc1Nc1ccc2c(c1)CCc1c(OC[C@H](O)CO)cccc1C2=O: 7.40
COc1ccc2c(c1)C(=O)c1ccc(Nc3ccccc3N)cc1CC2: 7.40

Consider the additional compound presented here.
Exercise: Please tell me: pIC50 of `CC1(C)OC[C@@H](COc2ccc3c(c2)C(=O)c2ccc(Nc4ccc(F)cc4F)cc2CC3)O1` , system Mitogen-activated protein kinase 14 (Homo sapiens, UniProt Q16539)?
Key: 7.40

Data provenance is ChEMBL document CHEMBL2150974.
